Just for reference, PubChem BioAssay (NCI) is where these values come from.

- Tested on: SNB-19 CNS
- assayNotes: NCI tumour cell line growth inhibition, 48 h
measurementLabel: TGI (µM)

>>> recordedmeasurement("COc1ccc2c(c1)cn1c3ccc(O)cc3[nH]c(=O)c21")
19.5
>>> recordedmeasurement("c1cc[c]([Sn]([S]c2cccc3cccnc23)([S]c2cccc3cccnc23)[c]2ccccc2)cc1")
1.66
>>> recordedmeasurement("COC(=O)NC(=O)c1cn(CCCOC(=O)CCCCCCCCC(=O)OCCCn2cc(C(=O)NC(=O)OC)c(=O)[nH]c2=O)c(=O)[nH]c1=O")
76.5
>>> recordedmeasurement("CCCCCCC#CC#Cc1cccc(=O)o1")
45.9
>>> recordedmeasurement("COC(=O)C[C@H](COCc1ccccc1)NC(=O)C[C@H](COCc1ccccc1)NC(=O)OC(C)(C)C")
44.2
>>> recordedmeasurement("CCc1cccc(CC)c1NC(=O)C1=C(C)NC(C)=C(C(=O)Nc2c(CC)cccc2CC)C1c1ccc2c(c1)OCO2")
33
>>> recordedmeasurement("COc1cc(-c2cc(/C=C3\\C(=O)Nc4ccccc43)[nH]n2)cc(OC)c1OC")
32.5
>>> recordedmeasurement("CC(=O)OC1CCC2(C)C(=CCC3C4CCC5(OC6CC(C)CN(C(C)=O)C6C5C)C(C)=C4C(=O)C32)C1 (stereo not given)")
32.7
